Just for reference, patent US11034672B1 is where these values come from.

Biological target: UniProt P00533
Sequence (P00533 25-1210 N540K): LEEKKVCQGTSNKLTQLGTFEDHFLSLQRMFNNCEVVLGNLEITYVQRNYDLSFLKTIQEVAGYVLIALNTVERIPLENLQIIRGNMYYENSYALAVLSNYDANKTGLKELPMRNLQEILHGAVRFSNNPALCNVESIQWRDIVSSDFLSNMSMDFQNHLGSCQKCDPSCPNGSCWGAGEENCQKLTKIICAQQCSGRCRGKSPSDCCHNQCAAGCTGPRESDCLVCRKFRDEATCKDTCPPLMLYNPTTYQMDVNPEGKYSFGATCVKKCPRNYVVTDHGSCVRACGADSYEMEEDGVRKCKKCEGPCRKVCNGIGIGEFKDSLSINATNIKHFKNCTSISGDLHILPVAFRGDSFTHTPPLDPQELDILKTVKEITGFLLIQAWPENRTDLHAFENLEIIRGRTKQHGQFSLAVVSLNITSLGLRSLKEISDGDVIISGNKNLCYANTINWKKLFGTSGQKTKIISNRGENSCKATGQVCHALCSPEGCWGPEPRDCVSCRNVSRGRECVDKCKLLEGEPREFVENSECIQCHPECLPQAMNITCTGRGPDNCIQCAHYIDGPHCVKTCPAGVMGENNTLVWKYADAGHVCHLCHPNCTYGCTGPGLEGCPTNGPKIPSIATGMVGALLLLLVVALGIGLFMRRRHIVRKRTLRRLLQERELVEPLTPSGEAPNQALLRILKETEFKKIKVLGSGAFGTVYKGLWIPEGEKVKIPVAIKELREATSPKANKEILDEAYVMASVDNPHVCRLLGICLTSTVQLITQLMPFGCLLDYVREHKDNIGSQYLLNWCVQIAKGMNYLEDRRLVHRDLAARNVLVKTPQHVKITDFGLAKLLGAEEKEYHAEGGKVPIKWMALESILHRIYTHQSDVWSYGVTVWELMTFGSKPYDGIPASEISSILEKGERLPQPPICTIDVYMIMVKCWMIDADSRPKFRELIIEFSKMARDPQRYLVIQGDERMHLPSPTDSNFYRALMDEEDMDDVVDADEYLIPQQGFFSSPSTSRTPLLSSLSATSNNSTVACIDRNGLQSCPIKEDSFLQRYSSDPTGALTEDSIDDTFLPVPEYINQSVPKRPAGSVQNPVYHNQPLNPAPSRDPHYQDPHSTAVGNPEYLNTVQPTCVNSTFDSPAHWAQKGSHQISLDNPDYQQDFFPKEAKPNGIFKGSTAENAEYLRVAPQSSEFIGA
Assay: BaF3 cell proliferation assay, EGFR WT (Table A)
Format: cell-based
Conditions: potency code, 3 days, CellTiterGlo, read-out: EGFR WT (Activity for Inhibiting EGFR)
Description: Retroviral Production: EGFR mutants were subcloned into pMXs-IRES-Blasticidin (RTV-016, Cell Biolabs, San Diego, Calif.). Retroviral expression vector retrovirus was produced by transient transfection of HEK 293T cells with the retroviral EGFR mutant expression vector pMXs-IRES-Blasticidin (RTV-016, Cell Biolabs), pCMV-Gag-Pol vector and pCMV-VSV-G-Envelope vector. […] EC50 values were determined with the same application.
pIC50: −log10 of the molar value.
reportedMetric: pIC50

Asked: Item C=CC(=O)Nc1cc2c(Nc3ccc(OCc4cccc(C)n4)c(Cl)c3)ncnc2cc1OCCCN1CCOCC1 [compound 129] has what recorded pIC50?
Given back: 6.00 to 6.30

Asked: Item C=CC(=O)Nc1cc2c(Nc3ccc(OCc4ccccn4)cc3)ncnc2cc1OCC1COCCN1 (centres unmarked) [compound 79] has what recorded pIC50?
Given back: 6.30 to 6.52

Asked: Item C=CC(=O)Nc1cc2c(Nc3ccc(OCc4ccccn4)c(Cl)c3)ncnc2cc1N(C)C1CCN(C)C1 (centres unmarked) [compound 48] has what recorded pIC50?
Given back: < 6.00

Asked: Item C=CC(=O)Nc1cc2c(Nc3ccc(OCc4ccccn4)c(Cl)c3)ncnc2cc1OC[C@H]1CCN(C)C1 [compound 101] has what recorded pIC50?
Given back: 6.70 to 7.00

Asked: Item C=CC(=O)Nc1cc2c(Nc3ccc(OCc4cccc(C)n4)c(Cl)c3)ncnc2cc1OCCCN1CC(OC)C1 [compound 138] has what recorded pIC50?
Given back: 6.70 to 7.00

Asked: Item C=CC(=O)Nc1cc2c(Nc3ccc(OCc4ccccn4)c(Cl)c3)ncnc2cc1OCCN(C)CC [compound 32] has what recorded pIC50?
Given back: 6.30 to 6.52

Asked: Item C=CC(=O)Nc1cc2c(Nc3ccc(OCc4cccc(F)n4)c(Cl)c3)ncnc2cc1OCCCN1C[C@@H]2C[C@H]1CO2 [compound 161] has what recorded pIC50?
Given back: 6.52 to 6.70

Asked: Item C=CC(=O)Nc1cc2c(Nc3ccc(OCc4cccc(F)n4)c(Cl)c3)ncnc2cc1OCCCN1CC(OC)C1 [compound 155] has what recorded pIC50?
Given back: 6.30 to 6.52

Asked: Item C=CC(=O)Nc1cc2c(Nc3ccc(OCc4ccccn4)c(Cl)c3)ncnc2cc1C#C[C@H]1CCNC1 [compound 86] has what recorded pIC50?
Given back: 6.00 to 6.30

Asked: Item C=CC(=O)Nc1cc2c(Nc3ccc(Oc4ccccc4)c(Cl)c3)ncnc2cc1O[C@@H]1CCN(C)C1 [compound 91] has what recorded pIC50?
Given back: 6.00 to 6.30

Asked: Item C=CC(=O)Nc1cc2c(Nc3ccc(OCc4ccccn4)c(Cl)c3)ncnc2cc1C#C[C@@H]1[C@H]2CN(C3COC3)C[C@@H]12 [compound 113] has what recorded pIC50?
Given back: 6.00 to 6.30
